# SYSTEM TESTED: T1, human Gal10-His (human, UniProt Q05315 2-142, limits assumed)
# T1 construct: also called hGal10-His; human Gal10-His tagged; not shown: His tag
# T1 sequence: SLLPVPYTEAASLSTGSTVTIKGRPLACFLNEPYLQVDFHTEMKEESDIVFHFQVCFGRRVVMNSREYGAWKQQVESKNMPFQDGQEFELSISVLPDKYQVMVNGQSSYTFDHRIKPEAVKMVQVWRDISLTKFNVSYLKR
# METHOD NOTES: SPR against T0 reference; sample 4 weeks at 5 C, then nebulized
PROPERTY: % relative activity by SPR (%)
Write the value in % as a bare number.

Reported % relative activity by SPR, binder g20H09 (Fab) (Fab, V domains shown, same VH/VL) VH: EVQLLESGGGLVQPGGSLRLSCAASGFTFRSYDMSWVRQAPGKGLEWVSAIKWHRITYYADSVKGRFTISRDNSKNTLYLQMNSLRAEDTAVYYCATTHGIGTLGFGSWGQGTLVTVSS VL: SYELTQPLSVSVALGQTARITCDGNNIGSKSAQWYQQKPGQAPVLVIYADEYRPEGIPERFSGSNSGNTATLTISRAQAGDEADYYCQVWDGSAAVFGGGTQLTVL : ____
97
